meta.source: patent US4272437A

system: Str. pyogenes A-9604
Lab note: compare MIC with 2 µg/mL, writing TRUE if less and FALSE if equal or more.

Data request: Identify whether the compound NCC[S+]([O-])CC1=C(C(=O)O)N2C(=O)C[C@H]2S1 (stereo partly drawn) [Example 101] records MIC below 2 µg/mL.
Data returned: TRUE

Data request: Identify whether the compound COCOC[C@H](O)[C@H]1C(=O)N2C(C(=O)O)=C(C)S[C@H]12 (relative stereo) [Example 105] records MIC below 2 µg/mL.
Data returned: FALSE

Data request: Identify whether the compound CON=C(C)CC1=C(C(=O)O)N2C(=O)CC2S1 (stereo not drawn) [Example 44] records MIC below 2 µg/mL.
Data returned: FALSE

Data request: Identify whether the compound Cc1cc(CC2=C(C(=O)O)N3C(=O)CC3S2)on1 (stereo not drawn) [Example 20] records MIC below 2 µg/mL.
Data returned: FALSE

Data request: Identify whether the compound O=C([O-])C1=C(CO)S[C@@H]2CC(=O)N12.[Na+] [Preparation 20] records MIC below 2 µg/mL.
Data returned: TRUE

Data request: Identify whether the compound N#CCCC(N)C1=C(C(=O)O)N2C(=O)C[C@H]2S1 (stereo partly drawn) [Example 83] records MIC below 2 µg/mL.
Data returned: TRUE

Data request: Identify whether the compound N[C@H]1C[C@H](C2=C(C(=O)O)N3C(=O)C[C@H]3S2)C1 [Example 75] records MIC below 2 µg/mL.
Data returned: TRUE

Data request: Identify whether the compound NCCSCC1=C(C(=O)O)N2C(=O)CC2S1 (stereo not drawn) [Example 88] records MIC below 2 µg/mL.
Data returned: TRUE

###

test system: Staph. aureus (Pen-Res) A-9606; assay: MIC, tube dilution, Staphylococcus aureus A9606 (Pen-Res); format: cell-based; settings: Staphylococcus aureus, Staph. aureus A9606 (Pen-Res); overnight 37° C.; read-out: Minimum Inhibitory Concentration (M.I.C.)
assay-readout: log10(MIC) (log10 of the value in µg/mL)
All values: base-10 log of MIC in µg/mL.

Data request: // lookup log10(MIC) for COCOC[C@H](O)[C@H]1C(=O)N2C(C(=O)O)=C(C)S[C@H]12 (relative stereo)
Data returned: 1.80

Data request: // lookup log10(MIC) for CC1(CC2=C(C(=O)O)N3C(=O)CC3S2)OCCO1 (centres unmarked)
Data returned: 1.51

Data request: // lookup log10(MIC) for NC=NCC1=C(C(=O)O)N2C(=O)CC2S1 (centres unmarked)
Data returned: 2.10

Data request: // lookup log10(MIC) for CC(N)C1=C(C(=O)O)N2C(=O)CC2S1 (centres unmarked)
Data returned: 1.51

Data request: // lookup log10(MIC) for CC(N)=NCC1=C(C(=O)O)N2C(=O)CC2S1 (centres unmarked)
Data returned: 1.51

Data request: // lookup log10(MIC) for O=C(O)C1=C(Cc2c[nH]c3ccccc23)SC2CC(=O)N12 (centres unmarked)
Data returned: -0.30

Data request: // lookup log10(MIC) for NC1CCC(C2=C(C(=O)O)N3C(=O)C[C@H]3S2)C1 (single isomer, unassigned) [98 isomer A]
Data returned: 1.51

Data request: // lookup log10(MIC) for NCCSCC1=C(C(=O)O)N2C(=O)CC2S1 (centres unmarked)
Data returned: 1.20

Data request: // lookup log10(MIC) for N#CCCC(N)C1=C(C(=O)O)N2C(=O)C[C@H]2S1 (some centres unmarked)
Data returned: 1.51

Data request: // lookup log10(MIC) for Nc1ccccc1CC1=C(C(=O)O)N2C(=O)CC2S1 (centres unmarked)
Data returned: 0.60

Data request: // lookup log10(MIC) for O=C(O)C1=C(CCCCN2C(=O)c3ccccc3C2=O)SC2CC(=O)N12 (centres unmarked)
Data returned: 1.20

Data request: // lookup log10(MIC) for NCC1=C(C(=O)O)N2C(=O)CC2S1 (centres unmarked)
Data returned: 0.90

Data request: // lookup log10(MIC) for O=C(O)CCC1=C(C(=O)O)N2C(=O)CC2S1 (centres unmarked)
Data returned: 1.51

Data request: // lookup log10(MIC) for CC1=C(C(=O)O)N2C(=O)[C@H](C(C)(C)O)[C@H]2S1 (relative stereo)
Data returned: 1.20

Data request: // lookup log10(MIC) for NCC1CC1C1=C(C(=O)O)N2C(=O)CC2S1 (centres unmarked)
Data returned: -0.30

Data request: // lookup log10(MIC) for NCc1ccc(C2=C(C(=O)O)N3C(=O)CC3S2)cc1 (centres unmarked)
Data returned: 1.51

Data request: // lookup log10(MIC) for CC1=C(C(=O)O)N2C(=O)[C@H](CNC=O)[C@H]2S1 (relative stereo)
Data returned: 1.20

Data request: // lookup log10(MIC) for NCCCCC1=C(C(=O)O)N2C(=O)CC2S1 (centres unmarked)
Data returned: 1.51

Data request: // lookup log10(MIC) for "CCC1=C(C(=O)O)N2C(=O)C[C@H]2S1"
Data returned: -0.30
